All figures here come from patent US11254668B2.

- MEASURED ON: JAK3 (Homo sapiens (Human))
- Sequence (P52333 822-1111): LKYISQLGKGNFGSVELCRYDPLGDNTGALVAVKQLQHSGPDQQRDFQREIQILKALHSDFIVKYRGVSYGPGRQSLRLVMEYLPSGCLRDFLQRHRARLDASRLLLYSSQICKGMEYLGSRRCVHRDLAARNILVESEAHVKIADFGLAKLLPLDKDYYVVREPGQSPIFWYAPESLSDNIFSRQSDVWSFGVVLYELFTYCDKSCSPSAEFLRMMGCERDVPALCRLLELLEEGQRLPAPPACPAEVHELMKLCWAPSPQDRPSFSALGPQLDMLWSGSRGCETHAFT
- PROCEDURE DETAILS: JAK Caliper Enzyme Assay at 1 mM ATP, JAK3
- Type: biochemical

{"COMPOUND": "N#CC[C@]1(n2ccc(-c3nc(-c4cccc(O)n4)cc4ncccc34)n2)C[C@H](C#N)C1", "CMP": ">", "IC50, µM": 10}
{"COMPOUND": "CO[C@H]1C[C@](CC#N)(n2ccc(-c3nc(-c4cnn(CCO)c4)cc4ncccc34)n2)C1", "CMP": ">", "IC50, µM": 10}
{"COMPOUND": "N#CCC1CC(CC#N)(n2cc(-c3nc(-c4cn[nH]c4)cc4ncccc34)cn2)C1 (stereo not shown)", "CMP": "=", "IC50, µM": 5.98}
{"COMPOUND": "N#CCC1(n2ccc(-c3nc(-c4ccn[nH]4)cc4ncccc34)n2)CC(CO)C1 (stereo not shown) [Example 28]", "CMP": ">", "IC50, µM": 10}
{"COMPOUND": "N#CC[C@]1(n2ncc(-c3cc(-c4cn[nH]c4)cc4ncccc34)n2)C[C@@H](C#N)C1", "CMP": "=", "IC50, µM": 2.73}
{"COMPOUND": "N#CC[C@]1(n2ccc(-c3nc(-c4cc(N)[nH]n4)cc4ncccc34)n2)C[C@H](C#N)C1", "CMP": "=", "IC50, µM": 1.24}
{"COMPOUND": "CCN1CC(CC#N)(n2ccc(-c3nc(C4=CCOCC4)cc4ncccc34)n2)C1", "CMP": ">", "IC50, µM": 10}
{"COMPOUND": "Cn1cnc2cc(-c3cc4ncccc4c(-c4ccn(C5(CC#N)CN(S(C)(=O)=O)C5)n4)n3)cnc21", "CMP": ">", "IC50, µM": 10}
{"COMPOUND": "N#CCC1(n2ncc(-c3cc(-c4nc(CO)cs4)cc4ncccc34)n2)CC(C#N)C1 (stereo not shown)", "CMP": "=", "IC50, µM": 8.91}
{"COMPOUND": "CS(=O)(=O)N1CC(CC#N)(n2ccc(-c3nc(-c4c[nH]c5cccnc45)cc4ncccc34)n2)C1", "CMP": ">", "IC50, µM": 10}

----------
- MEASURED ON: JAK1 (Homo sapiens (Human), UniProt P23458)
- Sequence (P23458 875-1153): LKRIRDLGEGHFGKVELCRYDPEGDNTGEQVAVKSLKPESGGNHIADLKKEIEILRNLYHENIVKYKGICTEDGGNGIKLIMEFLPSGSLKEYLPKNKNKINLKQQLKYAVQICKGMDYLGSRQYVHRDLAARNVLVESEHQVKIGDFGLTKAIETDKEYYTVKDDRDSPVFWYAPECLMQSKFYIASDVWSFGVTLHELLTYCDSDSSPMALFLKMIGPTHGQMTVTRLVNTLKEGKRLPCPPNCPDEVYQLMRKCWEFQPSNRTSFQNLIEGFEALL
- PROCEDURE DETAILS: JAK Caliper Enzyme Assay at 1 mM ATP, JAK1
- Type: biochemical
pIC50: −log10 of the molar value.
Returns one of Met or Not met; Met when pIC50 is >= 6.

{"COMPOUND": "Cc1cc(-c2nc(-c3cc(N)n(C)n3)cc3ncccc23)nn1[C@]1(CC#N)C[C@H](C#N)C1 [Example 271]", "MEASURED ON": "JAK1 (Homo sapiens (Human), UniProt P23458)", "CLASS NAME": "Met"}
{"COMPOUND": "N#CCC1(n2ccc(-c3nc(-c4cnn(C5CNC5)c4)cc4ncccc34)n2)CN(CC(F)(F)F)C1 [Example 115]", "MEASURED ON": "JAK1 (Homo sapiens (Human), UniProt P23458)", "CLASS NAME": "Not met"}
{"COMPOUND": "CS(=O)(=O)N1CC(CC#N)(n2ccc(-c3nc(-c4cnn(CC5COC5)c4)cc4ncccc34)n2)C1 [Example 132]", "MEASURED ON": "JAK1 (Homo sapiens (Human), UniProt P23458)", "CLASS NAME": "Met"}
{"COMPOUND": "N#CC[C@]1(n2ccc(-c3nc(-c4ccnc(C(N)=O)n4)cc4ncccc34)n2)C[C@H](C#N)C1 [Example 243]", "MEASURED ON": "JAK1 (Homo sapiens (Human), UniProt P23458)", "CLASS NAME": "Not met"}
{"COMPOUND": "Cn1nc(-c2cc3ncccc3c(-c3ccn([C@]4(CC#N)C[C@@H](C#N)C4)n3)n2)cc1CN [Example 71]", "MEASURED ON": "JAK1 (Homo sapiens (Human), UniProt P23458)", "CLASS NAME": "Not met"}
{"COMPOUND": "Cc1ccc(-c2cc3ncccc3c(-c3ccn(C4(CC#N)CN(S(C)(=O)=O)C4)n3)n2)c(N)n1 [Example 218]", "MEASURED ON": "JAK1 (Homo sapiens (Human), UniProt P23458)", "CLASS NAME": "Not met"}
{"COMPOUND": "C[C@]1(C#N)C[C@](CC#N)(n2ncc(-c3cc(-c4c[nH]nc4N)cc4ncccc34)n2)C1 [Example 321]", "MEASURED ON": "JAK1 (Homo sapiens (Human), UniProt P23458)", "CLASS NAME": "Not met"}
{"COMPOUND": "Cn1cc(-c2cc3ncccc3c(-c3ccn([C@]4(CC#N)C[C@@H](C#N)C4)n3)n2)c(N)n1 [Example 139]", "MEASURED ON": "JAK1 (Homo sapiens (Human), UniProt P23458)", "CLASS NAME": "Met"}
{"COMPOUND": "Cc1cc(-c2cc3ncccc3c(-c3ccn([C@]4(CC#N)C[C@H](C#N)C4)n3)n2)cc(N)n1 [Example 221]", "MEASURED ON": "JAK1 (Homo sapiens (Human), UniProt P23458)", "CLASS NAME": "Met"}
{"COMPOUND": "Cc1ccn(-c2cc3ncccc3c(-c3ccn(C4(CC#N)CN(CC(F)(F)F)C4)n3)n2)n1 [Example 143]", "MEASURED ON": "JAK1 (Homo sapiens (Human), UniProt P23458)", "CLASS NAME": "Not met"}

----------
- MEASURED ON: JAK2 (Homo sapiens (Human))
- Sequence (O60674 849-1124): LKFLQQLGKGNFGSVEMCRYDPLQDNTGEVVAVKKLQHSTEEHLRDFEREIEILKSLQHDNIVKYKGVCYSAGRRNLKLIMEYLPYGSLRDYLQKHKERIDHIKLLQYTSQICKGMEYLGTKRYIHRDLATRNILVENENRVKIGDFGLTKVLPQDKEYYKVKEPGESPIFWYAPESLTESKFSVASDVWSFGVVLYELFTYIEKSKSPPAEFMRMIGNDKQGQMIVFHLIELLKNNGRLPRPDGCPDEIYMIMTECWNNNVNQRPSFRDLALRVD
- PROCEDURE DETAILS: JAK Caliper Enzyme Assay at 1 mM ATP, JAK2
- Format: biochemical
pIC50: −log10 of the molar value.
// values below are reported pIC50

{"STRUCTURE NOTATION": "CS(=O)(=O)N1CC(CC#N)(n2ccc(-c3nc(-c4cncnc4)cc4ncccc34)n2)C1", "CMP": "<", "pIC50": 5.00}
{"STRUCTURE NOTATION": "Cn1ccc(-c2cc(-c3cnn([C@]4(CC#N)C[C@H](C#N)C4)n3)c3cccnc3c2)n1", "CMP": "=", "pIC50": 7.10}
{"STRUCTURE NOTATION": "Cn1cc(-c2cc3ncccc3c(-c3ccn(C4(CC#N)CN(CC(F)(F)F)C4)n3)n2)ccc1=O", "CMP": "=", "pIC50": 5.94}
{"STRUCTURE NOTATION": "Cn1nc(-c2cc3ncccc3c(-c3ccn([C@]4(CC#N)C[C@](C)(C#N)C4)n3)n2)cc1N", "CMP": "=", "pIC50": 6.61}
{"STRUCTURE NOTATION": "N#CCC1(n2ccc(-c3nc(-c4ccc(=O)[nH]c4)cc4ncccc34)n2)CN(S(=O)(=O)C2CC2)C1", "CMP": "=", "pIC50": 6.01}
{"STRUCTURE NOTATION": "CS(=O)(=O)N1CC(CC#N)(n2ccc(-c3cc(-c4cc[nH]n4)cc4ncccc34)n2)C1", "CMP": "=", "pIC50": 5.70}
{"STRUCTURE NOTATION": "Cn1cc(-c2cc3ncccc3c(-c3ccn(C4(CC#N)CN(S(C)(=O)=O)C4)n3)n2)ccc1=O", "CMP": "=", "pIC50": 6.27}
{"STRUCTURE NOTATION": "N#CCC1(n2ccc(-c3nc(-c4ccnc(N)c4)cc4ncccc34)n2)CN(CC(F)(F)F)C1", "CMP": "=", "pIC50": 6.16}
{"STRUCTURE NOTATION": "N#CC[C@]1(n2ncc(-c3cc(-c4ccnc(N)c4)cc4ncccc34)n2)C[C@H](C#N)C1", "CMP": "=", "pIC50": 5.89}
{"STRUCTURE NOTATION": "Cn1cc(-c2cc(-c3cnn([C@]4(CC#N)C[C@@H](C#N)C4)n3)c3cccnc3c2)cn1", "CMP": "=", "pIC50": 6.84}

----------
- MEASURED ON: TYK2 (Homo sapiens (Human))
- Sequence (P29597 897-1176): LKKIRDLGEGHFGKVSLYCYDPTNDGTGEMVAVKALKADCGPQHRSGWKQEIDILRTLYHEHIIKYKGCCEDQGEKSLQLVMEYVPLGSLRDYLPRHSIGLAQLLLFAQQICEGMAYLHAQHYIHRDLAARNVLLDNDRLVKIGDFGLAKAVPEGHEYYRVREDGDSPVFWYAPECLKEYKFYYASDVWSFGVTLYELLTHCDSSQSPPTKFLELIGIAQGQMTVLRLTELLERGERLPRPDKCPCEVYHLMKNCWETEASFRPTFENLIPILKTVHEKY
- PROCEDURE DETAILS: JAK Caliper Enzyme Assay at 1 mM ATP, TYK2
- Assay type: biochemical
pIC50: −log10 of the molar value.
So basically: pIC50 at 7 or higher? That is Y. Lower than 7? That is N.

{"STRUCTURE NOTATION": "Cc1cn([C@]2(CC#N)C[C@@H](C#N)C2)nc1-c1nc(-c2cc(N)n(C)n2)cc2ncccc12", "CLASS NAME": "N"}
{"STRUCTURE NOTATION": "Cn1ncc(-c2cc3ncccc3c(-c3ccn([C@]4(CC#N)C[C@@H](C#N)C4)n3)n2)c1CO", "CLASS NAME": "Y"}
{"STRUCTURE NOTATION": "CS(=O)(=O)N1CC(CC#N)(n2ncc(-c3nc(-c4cc[nH]n4)cc4ncccc34)n2)C1", "CLASS NAME": "Y"}
{"STRUCTURE NOTATION": "Cc1ncc(-c2cc3ncccc3c(-c3ccn(C4(CC#N)CN(S(C)(=O)=O)C4)n3)n2)cc1O", "CLASS NAME": "Y"}
{"STRUCTURE NOTATION": "Cn1cc(-c2cc3ncccc3c(-c3ccn([C@]4(CC#N)C[C@@H](C#N)C4)n3)n2)c(CO)n1", "CLASS NAME": "Y"}
{"STRUCTURE NOTATION": "N#CCC1(n2ccc(-c3nc(-c4ccnc(N)c4)cc4ncccc34)n2)CN(CC(F)(F)F)C1", "CLASS NAME": "Y"}
